assay-method-text: solvent given as SMILES
assay-context: in CCCCOCCCC
metric: emission maximum (nm)
# value in nm; strip the unit string

# query: emission maximum of entry `c1ccc(-c2nn(-c3ccccc3)c3nc4ccc(N(c5ccccc5)c5ccccc5)cc4cc23)cc1`
498.75

# query: emission maximum of entry `c1ccc(-n2c(-c3ccc(-c4ccc(-c5ccc(-c6nc7c8ccccc8c8ccccc8c7n6-c6ccccc6)cc5)cc4)cc3)nc3ccccc32)cc1`
411

# query: emission maximum of entry `c1ccc(-c2nc(-c3ccc(-c4ccc(-n5c6ccccc6c6ccccc65)cc4)cn3)oc2-c2ccccc2)cc1`
399

# query: emission maximum of entry `c1ccc(-c2nn(-c3ccccc3)c3nc4ccc(N(c5ccccc5)c5cccc6ccccc56)cc4cc23)cc1`
494.8

# query: emission maximum of entry `COc1nc(Cl)nc(Nc2ccc3c4c(cccc24)C(=O)c2ccccc2-3)n1`
507.1

Data provenance is the Deep4Chem optical property database.
